Tgt: UniProt:A5K3M1
Sequence (A5K3M1 entry or part of it): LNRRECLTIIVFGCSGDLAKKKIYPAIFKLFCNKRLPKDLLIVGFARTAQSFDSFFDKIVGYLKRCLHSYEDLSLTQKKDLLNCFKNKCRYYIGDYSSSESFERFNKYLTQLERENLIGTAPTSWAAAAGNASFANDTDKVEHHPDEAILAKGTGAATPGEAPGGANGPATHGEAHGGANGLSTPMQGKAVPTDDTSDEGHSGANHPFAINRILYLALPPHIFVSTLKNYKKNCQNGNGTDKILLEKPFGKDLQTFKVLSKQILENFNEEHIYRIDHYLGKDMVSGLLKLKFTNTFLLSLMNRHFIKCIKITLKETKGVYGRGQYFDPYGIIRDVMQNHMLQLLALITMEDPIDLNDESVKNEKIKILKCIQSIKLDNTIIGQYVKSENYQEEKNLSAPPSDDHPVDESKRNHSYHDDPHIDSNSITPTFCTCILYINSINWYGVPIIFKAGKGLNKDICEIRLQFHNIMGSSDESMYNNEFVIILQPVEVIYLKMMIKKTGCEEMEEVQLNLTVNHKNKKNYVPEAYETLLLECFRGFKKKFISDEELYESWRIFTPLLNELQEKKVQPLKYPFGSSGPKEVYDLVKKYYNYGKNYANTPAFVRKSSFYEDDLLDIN
Method summary: PvG6PD enzyme inhibition assay (NADPH formation, absorbance 340 nm / fluorescence)
Type: biochemical
Recorded conditions: mixed type towards NADP+; read-out: Ki on PvG6PD towards NADP+
Parameter measured: Ki (µM)
Response body: numeric value in µM, unit text excluded.

Data request: Determine its reported Ki: CCN1CCC[C@@H]1CNC(=O)c1ccc2c(c1)NC(=O)c1cccc(C)c1S2
Data returned: 16.3

----------
Tgt: PfGluPho (Plasmodium falciparum, UniProt Q8IKU0)
Construct: made in house
Sequence (Q8IKU0 whole entry): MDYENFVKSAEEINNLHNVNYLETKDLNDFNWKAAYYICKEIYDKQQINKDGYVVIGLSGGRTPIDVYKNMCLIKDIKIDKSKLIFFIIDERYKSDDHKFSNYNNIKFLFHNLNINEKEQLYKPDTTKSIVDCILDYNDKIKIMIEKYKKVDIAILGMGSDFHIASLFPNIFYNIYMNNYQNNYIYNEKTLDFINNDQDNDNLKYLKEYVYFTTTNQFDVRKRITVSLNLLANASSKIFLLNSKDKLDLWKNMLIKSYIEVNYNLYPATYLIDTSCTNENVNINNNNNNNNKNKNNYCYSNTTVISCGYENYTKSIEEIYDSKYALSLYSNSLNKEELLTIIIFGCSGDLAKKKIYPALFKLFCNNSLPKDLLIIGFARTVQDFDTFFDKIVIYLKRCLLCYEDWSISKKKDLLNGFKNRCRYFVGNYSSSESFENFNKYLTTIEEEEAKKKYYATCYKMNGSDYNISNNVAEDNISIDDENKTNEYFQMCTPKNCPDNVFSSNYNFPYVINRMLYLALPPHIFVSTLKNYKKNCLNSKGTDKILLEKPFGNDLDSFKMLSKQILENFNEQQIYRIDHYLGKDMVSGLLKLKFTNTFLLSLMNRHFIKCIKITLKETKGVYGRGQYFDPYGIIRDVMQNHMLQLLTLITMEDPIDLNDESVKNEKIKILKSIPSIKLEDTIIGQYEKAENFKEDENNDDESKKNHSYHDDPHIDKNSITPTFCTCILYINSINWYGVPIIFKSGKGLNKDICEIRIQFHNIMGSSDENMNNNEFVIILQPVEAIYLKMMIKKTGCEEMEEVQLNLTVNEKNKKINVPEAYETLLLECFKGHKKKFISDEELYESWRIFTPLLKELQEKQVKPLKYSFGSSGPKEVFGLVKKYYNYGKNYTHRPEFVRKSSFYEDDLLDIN
Method summary: PfGluPho G6PD activity inhibition assay
Format: biochemical
Kindly supply the reported IC50 values for the records listed here.
Your answer should be a plain number; it is taken to be in µM.

Data request: For the compound C=C[S+]([O-])c1sc(Cl)c(N2CCN(c3c(Cl)sc([S+]([O-])C=C)c3[N+](=O)[O-])CC2)c1[N+](=O)[O-] (stereo not drawn) , give its reported IC50.
Data returned: 1.7

Data request: Annotate the compound O=C(/C(=C1\N(Cc2ccc(Cl)nc2)CCN1Cc1cnc(Cl)s1)[N+](=O)[O-])C(Cl)(Cl)[N+](=O)[O-] with its measured IC50.
Data returned: 8.4

Data request: Entry O=C(C(=C1N(Cc2ccc(Cl)nc2)CCN1Cc1ccc(Cl)nc1)[N+](=O)[O-])C(Cl)(Cl)[N+](=O)[O-] needs its IC50 filled in; supply it.
Data returned: 23.6
